Origin of measurements: patent EP0844825B1

System: tobacco budworm (Heliothis virescens [Fabricius])
test_name: Diet test: test chemical incorporated into artificial diet of tobacco budworm larvae, 5-day exposure
Assay type: in vivo
experimental_setup: Heliothis virescens, feed or water, 120 h, read-out: Percent Mortality
observable: mortality at 100 µM (%)
Answers are plain numbers, in %.

molecule	system_under_test	mortality at 100 µM / %
[O-][N+]1(Cc2ccc(Oc3ncccc3C(F)(F)F)cc2)CCC(C(O)(c2ccc(C(F)(F)F)cc2)c2ccc(C(F)(F)F)cc2)CC1 (centres unmarked)	tobacco budworm (Heliothis virescens [Fabricius])	100
CCCOc1ccc(CN2CCC(C(O)(c3ccc(C(F)(F)F)cc3)c3ccc(C(F)(F)F)cc3)CC2)cc1	tobacco budworm (Heliothis virescens [Fabricius])	100
CC1CN(c2ccc(CN3CCC(C(O)(c4ccc(C(F)(F)F)cc4)c4ccc(C(F)(F)F)cc4)CC3)cc2)C(=O)O1 (centres unmarked)	tobacco budworm (Heliothis virescens [Fabricius])	35
Cc1cccnc1Oc1ccc(CN2CCC(C(O)(c3ccc(C(F)(F)F)cc3)c3ccc(C(F)(F)F)cc3)CC2)cc1	tobacco budworm (Heliothis virescens [Fabricius])	100
OC(c1ccc(C(F)(F)F)cc1)(c1ccc(C(F)(F)F)cc1)C1CCN(Cc2ccc(OCc3ccccn3)cc2)CC1	tobacco budworm (Heliothis virescens [Fabricius])	100
Cn1cnc(-c2ccc(CN3CCC(C(O)(c4ccc(C(F)(F)F)cc4)c4ccc(C(F)(F)F)cc4)CC3)cc2)n1	tobacco budworm (Heliothis virescens [Fabricius])	100

# per-item lookup of mortality at 100 µM; items listed below
1. Cn1nnc(-c2ccc(CN3CCC(C(O)(c4ccc(C(F)(F)F)cc4)c4ccc(C(F)(F)F)cc4)CC3)cc2)n1
2. [O-][N+]1(Cc2ccc(Oc3ccc(Cl)cn3)cc2)CCC(C(O)(c2ccc(C(F)(F)F)cc2)c2ccc(C(F)(F)F)cc2)CC1 (centres unmarked)

1. 100
2. 70

Respectfully, I request mortality at 100 µM for each entry included below.
1. Cn1ccc(-c2ccc(CN3CCC(C(O)(c4ccc(OC(F)(F)F)cc4)c4ccc(OC(F)(F)F)cc4)CC3)cc2)c1
2. CC1CN(c2ccc(C[N+]3([O-])CCC(C(O)(c4ccc(C(F)(F)F)cc4)c4ccc(C(F)(F)F)cc4)CC3)cc2)C(=O)O1 (centres unmarked)
3. OC(c1ccc(C(F)(F)F)cc1)(c1ccc(C(F)(F)F)cc1)C1CCN(Cc2ccc(-c3nnn(CCCF)n3)cc2)CC1

100
65
100

Count: 5. Required value per item: mortality at 100 µM.
1. OC(c1ccc(C(F)(F)F)cc1)(c1ccc(C(F)(F)F)cc1)C1CCN(Cc2ccc(Oc3ccc(Cl)cn3)cc2)CC1
2. OC(c1ccc(C(F)(F)F)cc1)(c1ccc(C(F)(F)F)cc1)C1CCN(Cc2ccc(Oc3ccc(C(F)(F)F)cn3)cc2)CC1
3. Cn1nnnc1-c1ccc(CN2CCC(C(O)(c3ccc(OC(F)(F)F)cc3)c3ccc(OC(F)(F)F)cc3)CC2)cc1
4. Cc1noc(-c2ccc(CN3CCC(C(O)(c4ccc(OC(F)(F)F)cc4)c4ccc(OC(F)(F)F)cc4)CC3)cc2)n1
5. N#Cc1ccc(Oc2ccc(C[N+]3([O-])CCC(C(O)(c4ccc(C(F)(F)F)cc4)c4ccc(C(F)(F)F)cc4)CC3)cc2)nc1 (centres unmarked)

[100, 100, 0, 100, 100]

I'm hoping you can list mortality at 100 µM for every molecule here, please.
1. OC(c1ccc(C(F)(F)F)cc1)(c1ccc(C(F)(F)F)cc1)C1CCN(Cc2ccc(Oc3ncccn3)cc2)CC1
2. Cn1nnc(-c2ccc(C[N+]3([O-])CCC(C(O)(c4ccc(OC(F)(F)F)cc4)c4ccc(OC(F)(F)F)cc4)CC3)cc2)n1 (centres unmarked)

100
100

// input: 6 molecules below; output: mortality at 100 µM for each
1. OC(c1ccc(C(F)(F)F)cc1)(c1ccc(C(F)(F)F)cc1)C1CCN(Cc2ccc(-c3ncccn3)cc2)CC1
2. OC(c1ccc(C(F)(F)F)cc1)(c1ccc(C(F)(F)F)cc1)C1CCN(Cc2ccc(Oc3ncccc3C(F)(F)F)cc2)CC1
3. [O-][n+]1ccccc1Oc1ccc(CN2CCC(C(O)(c3ccc(C(F)(F)F)cc3)c3ccc(C(F)(F)F)cc3)CC2)cc1
4. COCn1nnc(-c2ccc(C[N+]3([O-])CCC(C(O)(c4ccc(C(F)(F)F)cc4)c4ccc(C(F)(F)F)cc4)CC3)cc2)n1 (centres unmarked)
5. [O-][N+]1(Cc2ccc(-c3ccc(Cl)cn3)cc2)CCC(C(O)(c2ccc(C(F)(F)F)cc2)c2ccc(C(F)(F)F)cc2)CC1 (centres unmarked)
6. OC(c1ccc(C(F)(F)F)cc1)(c1ccc(C(F)(F)F)cc1)C1CCN(Cc2ccc(-c3nnn(C(F)F)n3)cc2)CC1

1: 100; 2: 100; 3: 55; 4: 100; 5: 85; 6: 100

Batch request: mortality at 100 µM per item, same order as input.
1. Cn1ncn(-c2ccc(CN3CCC(C(O)(c4ccc(C(F)(F)F)cc4)c4ccc(C(F)(F)F)cc4)CC3)cc2)c1=O
2. CC(C)n1nnc(-c2ccc(C[N+]3([O-])CCC(C(O)(c4ccc(C(F)(F)F)cc4)c4ccc(C(F)(F)F)cc4)CC3)cc2)n1 (centres unmarked)

35
100
